Target: Lymphocyte-specific protein tyrosine kinase (Lck), enzyme in cell-free kinase assay (human, UniProt P06239 1-509, limits assumed)
Sequence (P06239 whole entry): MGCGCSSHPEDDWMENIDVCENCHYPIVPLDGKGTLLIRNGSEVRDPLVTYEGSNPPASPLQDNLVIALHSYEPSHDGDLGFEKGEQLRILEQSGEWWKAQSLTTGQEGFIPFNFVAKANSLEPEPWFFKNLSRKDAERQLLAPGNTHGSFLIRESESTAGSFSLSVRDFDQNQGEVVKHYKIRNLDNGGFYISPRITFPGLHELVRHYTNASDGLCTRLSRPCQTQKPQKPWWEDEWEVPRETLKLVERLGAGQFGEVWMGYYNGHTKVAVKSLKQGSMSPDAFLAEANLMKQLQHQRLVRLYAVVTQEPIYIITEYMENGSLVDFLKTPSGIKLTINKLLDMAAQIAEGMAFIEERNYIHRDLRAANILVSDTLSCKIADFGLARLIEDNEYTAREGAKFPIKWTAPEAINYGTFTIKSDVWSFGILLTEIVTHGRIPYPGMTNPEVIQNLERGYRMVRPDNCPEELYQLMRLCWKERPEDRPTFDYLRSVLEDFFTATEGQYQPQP
Assay: cell-based or functional assay
QUANTITY NAME: Lck Activation above control, 10 µM (%)

| BINDER | QUANTITY NAME | MEASURED |
| --- | --- | --- |
| KEKLKNPLF | Lck Activation above control, 10 µM | 0 |
| RVKVKVVVVR | Lck Activation above control, 10 µM | 183 |
| RSKAKNPLYR | Lck Activation above control, 10 µM | 0 |
| RSKAKNPLY | Lck Activation above control, 10 µM | 186 |
| ASKAKNPLY | Lck Activation above control, 10 µM | 0 |
| RSRARNPLY | Lck Activation above control, 10 µM | 0 |
| SKAKNPLYR | Lck Activation above control, 10 µM | 0 |

These entries and their values trace back to patent US11912789.
